Reported growth values are given for each entry in this list.
test system: LOX IMVI melanoma; experiment: NCI-60 one-dose screen, 48 h (100 = growth as untreated, 0 = no growth, -100 = all killed); details: 10 µM unless noted
This is part of a sample that, as a whole, favours compounds with a hit. Of some 83,000 tested, about 20% had one in any assay.
Please reply with the bare figure in % and do not write the unit itself.

# count of solved cases: 6
Problem: # growth lookup, item `Cc1ccc(NC(=O)CSc2nnc3n(Cc4ccccc4)c(=O)c4c(C)c(C(N)=O)sc4n23)cc1`
Result: 59.9

Problem: # growth lookup, item `COc1ccc(OC)c(NC(=O)c2cc3oc4ccccc4c3cc2O)c1`
Result: 109

Problem: # growth lookup, item `CCCCN(CCCC)CCCOC(=O)c1ccc(N)cc1`
Result: 64.2

Problem: # growth lookup, item `O=C(CCc1nnc(Cn2cncn2)o1)c1nc2ccccc2[nH]1`
Result: 94.4

Problem: # growth lookup, item `CCCCOc1ccc(C(C)(C)c2ccc(OCCCC)cc2)cc1`
Result: 101

Problem: # growth lookup, item `Cc1ccc(C(=O)Nc2ccc(Cl)cc2C(=O)NCc2ccccc2)cc1`
Result: 79.2

More entries:
Problem: # growth lookup, item `CCCCCCCCCCCCNc1ncnc2[nH]ncc12`
Result: 44.6

Problem: # growth lookup, item COc1cc(/C=C2\CCC/C(=C\c3ccc(OCC4CO4)c(OC)c3)C2=O)ccc1OCC1CO1 (stereo unspecified)
Result: -59.9

Problem: # growth lookup, item `O=c1[nH]c(Cl)nc2c1cnn2-c1ccccc1`
Result: 71.7

Problem: # growth lookup, item CC(=O)Oc1ccc(C2OC(c3ccc4ccccc4c3OC(C)=O)=NN2C(C)=O)c(OC(C)=O)c1 (stereo unspecified)
Result: 4.67

Problem: # growth lookup, item `O=C1CC(=O)N(c2ccccc2)O1`
Result: 89.5

----------
system: OVCAR-3 ovarian; test: NCI-60 one-dose screen, 48 h; details: 10 µM unless noted
Compounds without any hit were thinned out: in the full panel of roughly 83,000, 20% have a hit. Calls of active or inactive are those of the source. The calls were made as follows: active = growth percent below 10; inactive = the rest.
Returns: one label drawn from y for active, n for inactive

Past entries and their recorded results:
Problem: Per the assay record, what outcome was assigned to `COc1ccc(/C=C(\C#N)c2ccccc2)cc1` ?
Result: n

Problem: Per the assay record, what outcome was assigned to `c1ccc2c(c1)[nH]c1c2cc[n+]2cc3c(cc12)CCCC3` ?
Result: n

Problem: Per the assay record, what outcome was assigned to `COc1ccc2c(c1)C(=O)c1c-2c(OCCN(C)C)nc2cc(OC)ccc12` ?
Result: n

Problem: Per the assay record, what outcome was assigned to `O=C1Nc2ccc(F)cc2/C1=C/c1nc(-c2ccc(F)cc2)n2ccccc12` ?
Result: n

Problem: Per the assay record, what outcome was assigned to `CCn1c2ccccc2c2ccc(C(C)=O)cc21` ?
Result: n

More entries:
Problem: Per the assay record, what outcome was assigned to COc1cc(C2=NN(C(C)=O)C(c3ccc(OC(C)=O)cc3OC(C)=O)O2)c(OC(C)=O)c2ccccc12 (stereo unspecified) ?
Result: n

Problem: Per the assay record, what outcome was assigned to `C/C(=C\CCc1ccoc1)CC/C=C(\C)CCCN1CCC(CO)CC1` ?
Result: n

Problem: Per the assay record, what outcome was assigned to `COC(=O)c1ccc2c(c1)nc(-c1ccc(O)c(OC)c1)n2-c1cc(C(C)(C)C)[nH]n1` ?
Result: n

----------
tested on: MDA-MB-435 melanoma; test: NCI-60 one-dose screen, 48 h; conditions: 10 µM unless noted
The panel holds about 83,000 compounds, 20% with a hit somewhere; the sample as a whole holds those more often. Calls of active or inactive are those of the source. How the source made its calls: active means growth percent below 10; inactive means the rest.
Returns: one label drawn from true (1) (active), false (0) (inactive)

Past entries and their recorded results:
Problem: Per the assay record, what outcome was assigned to `COc1ccc(Nc2nccc(N3CCN(c4c5ccc(Cl)cc5nc5ccc(OC)cc45)CC3)n2)cc1` ?
Result: false (0)

Problem: Per the assay record, what outcome was assigned to `Cc1ccc(NC(=O)COC(=O)c2ccc(S(=O)(=O)N3CCCCCC3)cc2)cc1` ?
Result: false (0)

Problem: Per the assay record, what outcome was assigned to CSc1ncc2ncn(C3OC(CO)C(O)C3O)c2n1 (centres undefined) ?
Result: false (0)

Problem: Per the assay record, what outcome was assigned to `CN(C)c1ccc(/C=C\c2ccnc3ccccc23)cc1` ?
Result: false (0)

Problem: Per the assay record, what outcome was assigned to `C=C(C[C@](O)(C(=O)/C=C/c1ccc(Cl)cc1)C(=O)OC)c1ccccc1` ?
Result: false (0)

More entries:
Problem: Per the assay record, what outcome was assigned to COc1cc2c(c(OC)c1OC)-c1ccc(NN(C(=O)c3ccccc3)C(=O)c3ccccc3)c(=O)cc1[C@@H](NC(C)=O)CC2 (tested in a mixture with another compound) ?
Result: true (1)

Problem: Per the assay record, what outcome was assigned to `O=C(/C=C/c1ccc(Cl)cc1)c1ccccc1` ?
Result: false (0)

Problem: Per the assay record, what outcome was assigned to `COc1ccc(C(=O)Nc2nc(-c3ccc(Cl)cc3)cs2)cc1` ?
Result: false (0)

Problem: Per the assay record, what outcome was assigned to `CCN(CC)c1ccc(N=Nc2cc(Cl)ccc2Cl)c(NC(=O)CCC(=O)O)c1` ?
Result: false (0)

----------
system: TK-10 renal; experiment: NCI-60 one-dose screen, 48 h (100 = growth as untreated, 0 = no growth, -100 = all killed); settings: 10 µM unless noted
The panel holds about 83,000 compounds, 20% with a hit somewhere; the sample as a whole holds those more often.
Reported growth values are given for each entry in this list.
Please reply with the bare figure in % and do not write the unit itself.

Problem: # growth lookup, item `CCN(CC)CCCNCCCNc1cc(OC)cc2cccnc12`
Result: 112

Problem: # growth lookup, item `COc1ccc(-c2cc(Cc3cccs3)c(=O)n(Cn3cncn3)n2)cc1`
Result: 113

Problem: # growth lookup, item `COc1ccc(COC(C)=O)cc1`
Result: 126

Problem: # growth lookup, item COc1cccc(C2C(C#N)=C(N)Oc3cc(OC)ccc32)c1 (configuration not stated)
Result: 50.6

Problem: # growth lookup, item `Fc1ccc(-c2nnc(-c3c(-c4ccc(F)cc4)nc4ncccn34)o2)cc1`
Result: 111

Problem: # growth lookup, item `O=C1OCC/C1=C\OCCCO/C=C1\CCOC1=O`
Result: 110

----------
test system: UACC-257 melanoma; experiment: NCI-60 one-dose screen, 48 h; conditions: 10 µM unless noted
This is part of a sample that, as a whole, favours compounds with a hit. Of some 83,000 tested, about 20% had one in any assay. Active and inactive are the calls of the source. How the source made its calls: active means growth percent below 10; inactive means the rest.
Returns: one label drawn from 1 (active), -1 (inactive)

Past entries and their recorded results:
Problem: Per the assay record, what outcome was assigned to `Nc1ccc(S(=O)(=O)Nc2ncccn2)cc1` ?
Result: -1

Problem: Per the assay record, what outcome was assigned to CC(NC(=O)C(C)Oc1ccc(Cl)cc1Cl)C(=O)O (configuration not stated) ?
Result: -1

Problem: Per the assay record, what outcome was assigned to `COc1cc2cn3c4ccc(O)cc4nc(N)c3c2cc1OC` ?
Result: 1

Problem: Per the assay record, what outcome was assigned to `O=C1CN(CO)C(=O)CN1CO` ?
Result: -1

Problem: Per the assay record, what outcome was assigned to `CCCCc1nc(Cl)c(CO)n1Cc1ccc(-c2ccccc2-c2nn[nH]n2)cc1` ?
Result: -1

More entries:
Problem: Per the assay record, what outcome was assigned to `O=C1OCCCCCCCCCC#Cc2ccccc21` ?
Result: -1

Problem: Per the assay record, what outcome was assigned to `C/C(=C\CCc1ccsc1)CC/C=C(\C)CCCN1CCC(CO)CC1` ?
Result: 1

Problem: Per the assay record, what outcome was assigned to `Clc1nc(Cl)c2ncn(-c3ccccc3)c2n1` ?
Result: -1

Problem: Per the assay record, what outcome was assigned to `COc1ccc2[nH]cc(/C=C3/C(=O)Nc4ccc(Cl)cc43)c2c1` ?
Result: -1

Problem: Per the assay record, what outcome was assigned to `COc1ccc(/C=N\Nc2ccc([N+](=O)[O-])cn2)cc1OC` ?
Result: -1

Problem: Per the assay record, what outcome was assigned to `O=C(Nc1ccncc1)C(=O)c1cn(S(=O)(=O)c2cccc(F)c2)c2ccccc12` ?
Result: -1

Problem: Per the assay record, what outcome was assigned to `CCOC(=O)c1c(C)c(C(=O)OCC)n(C)c1C` ?
Result: -1

----------
system: UACC-257 melanoma; assay: NCI-60 one-dose screen, 48 h (100 = growth as untreated, 0 = no growth, -100 = all killed); conditions: 10 µM unless noted
This is part of a sample that, as a whole, favours compounds with a hit. Of some 83,000 tested, about 20% had one in any assay.
Reported growth values are given for each entry in this list.
Please reply with the bare figure in % and do not write the unit itself.

# count of solved cases: 10
Problem: # growth lookup, item `N#Cc1cccc(/C=C(/C(=O)c2ccccc2)c2ccccc2)c1`
Result: 43.1

Problem: # growth lookup, item `Nc1nonc1-c1nc2ccccc2n1CC(=O)Nc1ccc2c(c1)COC2=O`
Result: 90.1

Problem: # growth lookup, item `COc1ccc(/C=C(\C#N)c2ccccc2)cc1`
Result: 85.9

Problem: # growth lookup, item `Cc1c(C(N)=O)sc2c1C(=O)N(Cc1ccccc1)C1=NN=C(c3ccc(Cl)cc3)CN12`
Result: 59.8

Problem: # growth lookup, item CCCCCCCC/C=C/CCCCCCCC1=NC(C)(C)CN1CC(C)O (configuration not stated)
Result: 87.2

Problem: # growth lookup, item `O=c1c(O)cccn1CCCNCCCN(CCCn1cccc(O)c1=O)CCCn1cccc(O)c1=O`
Result: 121

Problem: # growth lookup, item `COc1cc(/C=C/C(=O)c2c(-c3ccc(F)cc3)nc3sc(C)nn23)cc(OC)c1OC`
Result: 46.6

Problem: # growth lookup, item `CCCCCCCC/C=C/CCCCCCCC1=NC(C)(C)CN1CCO`
Result: 20.1

Problem: # growth lookup, item `O=C(/C=C/c1ccc(Cl)cc1)c1ccccc1`
Result: 102

Problem: # growth lookup, item `Cc1cc(NC(=O)Nc2cc(Cl)ccc2C)no1`
Result: 115

More entries:
Problem: # growth lookup, item `CCN(CC)c1ccc(N=Nc2cc(Cl)ccc2Cl)c(NC(=O)CCC(=O)O)c1`
Result: 117

Problem: # growth lookup, item `O=C1OC(c2ccc(-c3ccccc3)cc2)=C/C1=C/c1cccs1`
Result: 106

Problem: # growth lookup, item `Nc1ccc(C2=Nc3cccc4cccc(c34)S2)cc1`
Result: 84.3

Problem: # growth lookup, item `COc1cc(NC(=O)c2cc3ccccc3cc2O)c(OC)cc1Cl`
Result: -22.2

Problem: # growth lookup, item `O=C1C(=O)c2ccc(Br)cc2-c2cc(Br)ccc21`
Result: 76.8

Problem: # growth lookup, item `O=C(/C=C/c1ccc(O)c(O)c1)N1CCN(c2ccc(Cl)cc2)CC1`
Result: 81.8

Problem: # growth lookup, item `CN(C)c1ccc2[nH]c3c(C(N)=O)cc(=O)c(=O)c=3oc2c1`
Result: 91

Problem: # growth lookup, item `c1csc([C@@H]2C[C@@H]3Cc4ccc5ccccc5c4N2O3)c1`
Result: 98.7

Problem: # growth lookup, item `CCOc1cc(C(C)(C)C)ccc1C1=N[C@H](c2ccc(Cl)cc2)[C@H](c2ccc(Cl)cc2)N1C(=O)N1CCN(CC#Cc2cccc3c2CN([C@@H]2CCC(=O)NC2=O)C3=O)CC1`
Result: 42.6
